assay: Quantitative High-Throughput drug screen in 47 multiple myeloma cell lines against the NCATS MIPE library collection: INA6_PLB cell viability assay (AID 1918965; further: nearly all actives have a fitted effect of over 55% in size); settings: INA6 myeloma viability, CellTiter-Glo ATP luminescence, 48 h; series mostly up to 45.8 µM
Inconclusive results are not listed. Calls of active or inactive are those of the source. The call rests on the fitted dose curve; in most records, active means well fitted cell-killing curve with a large enough effect; inconclusive means small, poorly fitted or top-dose-only effect, or effect the other way; inactive means no such curve, though single readings can be large or run the other way.
Outcome codes: active, inactive

- molecule: "C[C@H](NC(=O)C(C#N)=Cc1cccc(Br)n1)c1ccccc1"
  className: "active"
- molecule: "COc1cc(C(C)C)c(Oc2cnc(NC(CO)CO)nc2N)cc1I"
  className: "inactive"
- molecule: "CCc1ccc(C(=O)Nc2cc(CN3CCN(C)CC3)cc(C(F)(F)F)c2)cc1C#Cc1cnc2ccnn2c1"
  className: "active"
- molecule: "Oc1ccc(-c2ccc(-c3cc(Nc4cccc(CNC5CC5)c4)n[nH]3)cc2)c(O)c1"
  className: "active"
- molecule: "O=C(C=CC#Cc1cccc(NS(=O)(=O)c2ccccc2)c1)NO"
  className: "active"
- molecule: "COc1ccc2c(c1OC)C(=O)OC2[C@H]1c2c(cc3c(c2OC)OCO3)CCN1C (some centres undefined)"
  className: "active"
- molecule: "CCS(=O)(=O)Nc1ccc2[nH]c(O)c(C(=Nc3ccc(CN4CCCCC4)cc3)c3ccccc3)c2c1"
  className: "active"
- molecule: "Cn1cnc2c(F)c(Nc3ccc(Br)cc3F)c(C(=O)NOCCO)cc21"
  className: "active"
- molecule: "C[C@]12CCC(=O)C=C1[C@@H]1CC1[C@H]1[C@H]3[C@@H]4C[C@H]4[C@@]4(CCC(=O)O4)[C@@]3(C)CC[C@H]12 (some centres undefined)"
  className: "active"
- molecule: "NS(=O)(=O)OC[C@@H]1C[C@@H](n2ccc3c(N[C@H]4CCc5ccccc54)ncnc32)C[C@H]1O"
  className: "active"
- molecule: "CS[C@H]1SC[C@@H]2C(=O)N(C)[C@H](C(C)C)C(=O)OC[C@H](NC(=O)c3cnc4ccccc4n3)C(=O)N[C@H](C)C(=O)N(C)[C@@H]1C(=O)N(C)[C@H](C(C)C)C(=O)OC[C@H](NC(=O)c1cnc3ccccc3n1)C(=O)N[C@H](C)C(=O)N2C"
  className: "active"
- molecule: "CN(C)CCN1C(=O)c2cccc3cc(N)cc(c23)C1=O"
  className: "active"
- molecule: "C[C@H](CCC(=O)O)[C@H]1CC[C@H]2[C@@H]3[C@H](O)C[C@@H]4C[C@H](O)CC[C@]4(C)[C@@H]3CC[C@]12C"
  className: "inactive"
- molecule: "NC(=O)c1ncn([C@@H]2O[C@H](CO)[C@@H](O)[C@@H]2O)c1O"
  className: "inactive"
- molecule: "O=C(O)C(=O)Nc1cccc(C2=NN=N[N]2)c1"
  className: "inactive"
- molecule: "N#CC(=C(N)Sc1ccc(N)cc1)c1ccccc1C(F)(F)F"
  className: "active"
- molecule: "CC[C@]12C=CCN3CC[C@@]4(c5cc([C@@]6(C(=O)OC)C[C@H]7C[C@@H](C(C)(F)F)CN(Cc8c6[nH]c6ccccc86)C7)c(OC)cc5N(C)[C@H]4[C@@](O)(C(=O)OC)[C@H]1OC(C)=O)[C@@H]32"
  className: "active"
- molecule: "NC1=N[C@H]2[C@H](CS[C@H]2CCCCC(=O)O)N1"
  className: "inactive"
- molecule: "FC(F)(F)c1ccc(Nc2nc3ccc(Oc4ccnc(-c5ncc(C(F)(F)F)[nH]5)c4)cc3[nH]2)cc1"
  className: "active"
- molecule: "CCOC(=O)C1=C(C)NC(=S)NC1c1cccc(O)c1 (centres undefined)"
  className: "active"
- molecule: "CC(C)[C@H](CO)Nc1nc(Nc2cccc(Cl)c2)c2ncn(C(C)C)c2n1"
  className: "active"
- molecule: "C[C@]12CC[C@@H]3c4ccc(O)cc4CC[C@H]3[C@H]1CC[C@H]2O"
  className: "active"
- molecule: "COc1cc(C(=O)NC2CCN(C)CC2)ccc1Nc1ncc2c(n1)N(C1CCCC1)CCC(=O)N2C(C)C"
  className: "active"
- molecule: "COc1cc([C@@H]2c3cc4c(cc3[C@H](O)[C@H]3COC(=O)[C@@H]23)OCO4)cc(OC)c1OC"
  className: "active"
